assay-remarks: Urinary excretion study in rats after oral NS, SF or CNS (LC–MS/MS)
Type: in vivo
experimental-conditions: rat urine, oral NS 60 mg/kg, 12 h

- compound: "CC(C)=CCC[C@](C)(O[C@@H]1O[C@H](CO[C@@H]2O[C@H](CO)[C@@H](O)[C@H](O)[C@H]2O)[C@@H](O)[C@H](O)[C@H]1O)[C@H]1CC[C@]2(C)[C@@H]1[C@H](O)C[C@@H]1[C@@]3(C)CC[C@H](O[C@@H]4O[C@H](CO)[C@@H](O)[C@H](O)[C@H]4O[C@@H]4O[C@H](CO)[C@@H](O)[C@H](O)[C@H]4O)C(C)(C)[C@@H]3CC[C@]12C [ginsenoside Rb1]"
  Accumulative excretion amount: "1.139 ± 1.140 µg"
- compound: "CC(C)=CCC[C@](C)(O[C@@H]1O[C@H](CO)[C@@H](O)[C@H](O)[C@H]1O)[C@H]1CC[C@]2(C)[C@@H]1[C@H](O)C[C@@H]1[C@@]3(C)CC[C@H](O)C(C)(C)[C@@H]3[C@@H](O[C@@H]3O[C@H](CO)[C@@H](O)[C@H](O)[C@H]3O[C@@H]3O[C@@H](C)[C@H](O)[C@@H](O)[C@H]3O)C[C@]12C [ginsenoside Re]"
  Accumulative excretion amount: "0.721 ± 0.406 µg"
- compound: "CC(C)=CCC[C@](C)(O[C@@H]1O[C@H](CO)[C@@H](O)[C@H](O)[C@H]1O)[C@H]1CC[C@]2(C)[C@@H]1[C@H](O)C[C@@H]1[C@@]3(C)CC[C@H](O[C@@H]4O[C@H](CO)[C@@H](O)[C@H](O)[C@H]4O[C@@H]4O[C@H](CO)[C@@H](O)[C@H](O)[C@H]4O)C(C)(C)[C@@H]3CC[C@]12C [ginsenoside Rd]"
  Accumulative excretion amount: "0.173 ± 0.206 µg"
- compound: "CC(C)=CCC[C@](C)(O[C@@H]1O[C@H](CO)[C@@H](O)[C@H](O)[C@H]1O)[C@H]1CC[C@]2(C)[C@@H]1[C@H](O)C[C@@H]1[C@@]3(C)CC[C@H](O)C(C)(C)[C@@H]3[C@@H](O[C@@H]3O[C@H](CO)[C@@H](O)[C@H](O)[C@H]3O)C[C@]12C [ginsenoside Rg1]"
  Accumulative excretion amount: "15.061 ± 7.022 µg"
